Origin of the recorded values: patent US11732262B2

# Test system: mouse FUBP1 mRNA
# TEST SUMMARY: FUBP1 mRNA reduction by LNA antisense oligonucleotides in primary mouse hepatocytes (PMH)
# Type: cell-based
# EXPERIMENTAL CONDITIONS: 5 μM, 72 hours, normalized to GusB, % of PBS treated cells
MEASUREMENT NAME: % FUBP1 mRNA of control 5 μM Avg (%)

SUBSTANCE: GAgtttaaaatacattGCC (GAGTTTAAAATACATTGCC; chemistry not given here) [CMP ID NO 52_1]
EXPERIMENTAL RESULT: 68.1

SUBSTANCE: TTCaaacttactggACA (TTCAAACTTACTGGACA; chemistry not given here) [CMP ID NO 45_1]
EXPERIMENTAL RESULT: 60.5

SUBSTANCE: GctttttatggtttcaCC (GCTTTTTATGGTTTCACC; chemistry not given here) [CMP ID NO 53_1]
EXPERIMENTAL RESULT: 46.1

SUBSTANCE: TACctttgctgctgAT (TACCTTTGCTGCTGAT; chemistry not given here) [CMP ID NO 40_1]
EXPERIMENTAL RESULT: 59.2

SUBSTANCE: GtataatcaacctgtCCA (GTATAATCAACCTGTCCA; chemistry not given here) [CMP ID NO 62_1]
EXPERIMENTAL RESULT: 38.5

SUBSTANCE: TGgagctaattcaggaGT (TGGAGCTAATTCAGGAGT; chemistry not given here) [CMP ID NO 72_1]
EXPERIMENTAL RESULT: 64.5

SUBSTANCE: TAtaatcaacctGTCC (TATAATCAACCTGTCC; chemistry not given here) [CMP ID NO 64_1]
EXPERIMENTAL RESULT: 58.2
